Each recorded value in this set is attributed to the supplement of paper PMC10567573.

# protein stability index per entry
B1: SFRS1 (parent)
chain: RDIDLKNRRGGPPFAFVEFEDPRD

# Variants of: B1
# assay procedure: protein stability index of a GFP-peptide fusion (GPS, HEK-293T) (PSI 1-6); higher = more stable;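 note: lentivirally expressed fusions sorted by FACS into six bins by GFP to DsRed ratio, PSI derived from sequencing read proportions per bin multiplied by bin number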
# study conditions: c terminus: a fixed tail appended
Lab note: record the figure alone, no unit after it.

G10S	4.21
R8G	4.46
P13D	4.58
F16A	5.03
R23S	4.07
I3F	3.64
D4W	2.35
R8S	4.32

*Q* Endpoint output: protein stability index of P12D . Value?
*A* 5.06

*Q* What measured protein stability index goes with F19C ?
*A* 3.05

*Q* I would be grateful if you could share the reported protein stability index for D21G .
*A* 2.55

*Q* Requested field: protein stability index. Item: P22Q
*A* 4.44

*Q* For the variant shown here, D24Y , give the reported protein stability index.
*A* 2.5

*Q* Tell me the measured protein stability index of F19A , please.
*A* 2.95

*Q* Please give the measured protein stability index for this variant: P22R
*A* 3.62

*Q* Given the variant F16C , what is its reported protein stability index?
*A* 4.45

*Q* Fill in: protein stability index of I3N is ___
*A* 3.81

*Q* I would be grateful if you could share the reported protein stability index for F14Q .
*A* 5.27

*Q* Dear colleague, I am looking for the recorded protein stability index of the following variant: K6Y
*A* 3.78
